Test system: T1, long-neurotoxin-taipan, recombinant, Taipan-Avi-His (coastal taipan (Oxyuranus scutatellus), UniProt A8HDK9 22-92)
T1 construct: also called Taipan LNX; long-neurotoxin from Taipan
T1 sequence: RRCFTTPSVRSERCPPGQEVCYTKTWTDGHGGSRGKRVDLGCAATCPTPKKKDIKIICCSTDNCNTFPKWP
Measurement notes: off-rate kinetics; platform not named
Measured endpoint: koff (s⁻¹)
Write it as a number; the unit s⁻¹ goes unstated.

Q: Quick one: koff for SNEURO_P01_D09 VK L3 NS->QS (antibody, V domains shown) VH: EVQLVESGGGFVQPGGSLRLSCAASGFTFSNFDMHWVRQSPGKGLEWVSGLDHSGGAHYAGSVKGRFTISREDAKNSLDLQMNNLRVDDTAVYFCVRGTLYHYTSGSYYSDAFDIWGQGTLVTVSS VL: EIVLTQSPSSLSASVGDRVTITCQASQDISNYLNWYQQKPGKAPKLLIYAASSLESGVPSRFSGSGSGTDFTLTISSQQPEDFATYYCQQAQSFPYTFGQGTKVEIKR ?
Ans: 0.000304
